SUBJECT OF TEST: Probable G-protein coupled receptor 32 (Homo sapiens) (UniProt O75388)
Sequence (O75388 whole entry, looked up): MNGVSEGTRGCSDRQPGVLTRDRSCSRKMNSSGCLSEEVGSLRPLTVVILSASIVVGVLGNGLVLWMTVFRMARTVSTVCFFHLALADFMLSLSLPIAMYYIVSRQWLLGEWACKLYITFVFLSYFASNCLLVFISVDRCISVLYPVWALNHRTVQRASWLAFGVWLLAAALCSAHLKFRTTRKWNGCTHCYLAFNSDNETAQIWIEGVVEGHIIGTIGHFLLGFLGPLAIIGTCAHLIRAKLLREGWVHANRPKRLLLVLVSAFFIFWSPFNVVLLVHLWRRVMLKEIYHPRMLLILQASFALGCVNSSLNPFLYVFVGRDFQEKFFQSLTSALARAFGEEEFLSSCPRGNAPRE
TEST: qHTS for Agonists of Human Resolvin D1 Receptor DRV1; note: 0% is about no effect
MEASUREMENT CONDITIONS: CHO-K1 GPR32 beta-arrestin PathHunter luminescence, 90 min; at 76.9 µM; zero percent set by DMSO-only wells
Out of some 48,000 compounds screened, about 1,200 (2.5%) were called active. Roughly 2% stayed inconclusive and do not appear here.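 Rule for the calls: active = activation of at least 60% and not above a set upper limit (about 1 call in 100 departs from these limits); inconclusive = activation of 40% to 60%, or above that upper limit; inactive = activation under 40%.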 The full list was thinned out, with actives kept by preference.
One label from this list, please: y (active), n (inactive)

Previously resolved entries follow.
{"CHEM SMILES": "COc1ccc(C)cc1Nc1nc2ccccc2c2nnc(C)n12", "QUALITATIVE LABEL": "n"}
{"CHEM SMILES": "CCc1ccc(NC(=O)Cn2c(=O)n(CCC(=O)NCc3ccc4c(c3)OCO4)c(=O)c3ccccc32)cc1", "QUALITATIVE LABEL": "n"}
{"CHEM SMILES": "O=C(CCS(=O)(=O)c1cc(Br)cc2c1N(C(=O)C1CC1)CC2)Nc1ccc(C(F)(F)F)cc1", "QUALITATIVE LABEL": "n"}
{"CHEM SMILES": "Cn1nnnc1SCCNCc1ccc(Cl)c(Cl)c1", "QUALITATIVE LABEL": "n"}
{"CHEM SMILES": "COc1cc(CNCCSc2nnnn2C)ccc1OCc1c(F)cccc1Cl", "QUALITATIVE LABEL": "n"}

Pending compound:
Can you look up the reported call for `COc1cc(CNCCSc2nnnn2C)ccc1OCc1ccc(Cl)cc1Cl` for me? y

----------
SUBJECT OF TEST: Probable G-protein coupled receptor 32 (Homo sapiens) (UniProt O75388)
TEST: qHTS for Agonists of Human Resolvin D1 Receptor DRV1; note: 0% is about no effect
MEASUREMENT CONDITIONS: CHO-K1 GPR32 beta-arrestin PathHunter luminescence, 90 min; at 76.9 µM; active compounds read high; zero percent set by DMSO-only wells
Source text: Endogenous resolution of inflammation is known to be transduced through various GPCRs and their natural mediators of lipid nature. Resolvin D1 (RvD1) is one of the active players in resolution of acute inflammation through regulation of anti-inflammatory pathways; it is known to enhance phagocytosis of human macrophages, limits neutrophils infiltration, etc. […]
The campaign covered roughly 48,000 compounds. About 1,200 (2.5%) were called active. Another 2% or so got no clear call; they are omitted. This is one part of a sample in which actives are shown more often than they occur.
activation values for the molecules below.
Quick note: give the figure in %, leave out the unit.

Field: example entries. Status: answers known.
{"MOLECULE": "CCOc1ccc(N(CC)C(=O)c2cc3c(=O)oc4ccccc4c3s2)cc1", "activation / %": 21.3}
{"MOLECULE": "COc1ccc(Cl)cc1N(C)C(=O)c1cc2c(=O)oc3ccc(C)cc3c2s1", "activation / %": 29.1}
{"MOLECULE": "COc1ccc(OC)c(NC(=O)C2CCCN(S(=O)(=O)c3ccc4c(c3)CCCC(=O)N4)C2)c1 (stereo not given)", "activation / %": -4.17}

Report its activation with Probable G-protein coupled receptor 32 (Homo sapiens) (UniProt O75388) as the test system: `CC1=C(c2ccc(C)cc2)S(=O)(=O)NC1=NCCCN1CCN(c2cc(C)ccc2C)CC1` 84.3

Report its activation with Probable G-protein coupled receptor 32 (Homo sapiens) (UniProt O75388) as the test system: `COc1cccc(-c2nnc3n(CCc4ccccc4)c(=O)c4ccccc4n23)c1O` 77.1

Report its activation with Probable G-protein coupled receptor 32 (Homo sapiens) (UniProt O75388) as the test system: `CCOC(=O)c1ccc(NC(=O)C2CCN(S(=O)(=O)c3ccc4c(c3)CCCC(=O)N4)CC2)cc1` 68.9

Report its activation with Probable G-protein coupled receptor 32 (Homo sapiens) (UniProt O75388) as the test system: CCC(C(=O)OCCN(CC)CC)c1ccccc1 (stereo not given) 1.87

Report its activation with Probable G-protein coupled receptor 32 (Homo sapiens) (UniProt O75388) as the test system: CC(=O)Nc1ccc(NC(=O)C2CCCN(S(=O)(=O)c3ccc4c(c3)CCCC(=O)N4)C2)cc1 (stereo not given) 16.8

Report its activation with Probable G-protein coupled receptor 32 (Homo sapiens) (UniProt O75388) as the test system: `CC1=C(c2ccc(Cl)cc2)S(=O)(=O)N=C1N1CCN(c2cc(C)ccc2C)CC1` -14.2

Report its activation with Probable G-protein coupled receptor 32 (Homo sapiens) (UniProt O75388) as the test system: `COc1ccc(Cl)cc1NC(=O)NCC1CCN(Cc2ccccc2F)CC1` -10.4

----------
SUBJECT OF TEST: Probable G-protein coupled receptor 32 (Homo sapiens) (UniProt O75388)
TEST: qHTS for Agonists of Human Resolvin D1 Receptor DRV1; note: 0% is about no effect
MEASUREMENT CONDITIONS: CHO-K1 GPR32 beta-arrestin PathHunter luminescence, 90 min; at 76.9 µM; active compounds read high; zero percent set by DMSO-only wells
The campaign covered roughly 48,000 compounds. About 1,200 (2.5%) were called active. About 2% were inconclusive and are not listed. Only a selection was taken, and actives are over-represented in it overall.
MEASUREMENT KIND: activation (%)
Quick note: give the figure in %, leave out the unit.

{"COMPOUND": "COC(=O)c1c(NC(=O)CCCOc2ccccc2)sc2c1CCC(C)C2 (stereo unspecified)", "activation (%)": 7.01}

Now examine the next entry.
Report its activation with Probable G-protein coupled receptor 32 (Homo sapiens) (UniProt O75388) as the test system: `CC(C)NC(=O)c1nn(-c2ccccc2F)nc1CO` -8.71

----------
SUBJECT OF TEST: Probable G-protein coupled receptor 32 (Homo sapiens)
TEST: qHTS for Agonists of Human Resolvin D1 Receptor DRV1; note: 0% is about no effect
MEASUREMENT CONDITIONS: CHO-K1 GPR32 beta-arrestin PathHunter luminescence, 90 min; at 76.9 µM; active compounds read high; zero percent set by DMSO-only wells
Source text: Endogenous resolution of inflammation is known to be transduced through various GPCRs and their natural mediators of lipid nature. Resolvin D1 (RvD1) is one of the active players in resolution of acute inflammation through regulation of anti-inflammatory pathways; it is known to enhance phagocytosis of human macrophages, limits neutrophils infiltration, etc. […]
Hit rate of the full screen: of about 48,000 compounds, about 1,200 (2.5%) were called active. Roughly 2% stayed inconclusive and do not appear here. The list comes from a sample in which actives are over-represented; it also holds close analogues and randomly drawn compounds.
activation values for the molecules below.
Quick note: give the figure in %, leave out the unit.

Field: example entries. Status: answers known.
{"MOLECULE": "CCOc1ccc(CCNC(=O)CSc2cc(=O)n(C)c3ccc(Cl)cc23)cc1OCC", "activation / %": -7.71}
{"MOLECULE": "COc1ccccc1NC(=O)Cn1cnc2ccc(S(=O)(=O)N3CCC(C)CC3)cc2c1=O", "activation / %": 14.7}
{"MOLECULE": "CCOc1ccc(-c2n[nH]c3c2C(c2ccccc2OC)N(c2ccc(Br)cc2)C3=O)cc1 (stereo unspecified)", "activation / %": -5.97}
{"MOLECULE": "Cc1cccc(N2CCN(C(=O)c3cnc(N4CCCC4)nc3C)CC2)c1C", "activation / %": 36.6}
{"MOLECULE": "CCC(C)c1ccc2oc(-c3ccc(NC(=O)c4cc5ccccc5o4)cc3)nc2c1 (stereo unspecified)", "activation / %": -0.177}

Quote activation reported for `CCOC(=O)c1c(NC(=O)COc2cc(C)ccc2C(C)C)sc(C)c1C` please. -11

Quote activation reported for `CC(=O)c1ccc(S(=O)(=O)N2CCC(Oc3ccc(-n4cnnn4)cc3)CC2)cc1` please. -8.41

Quote activation reported for CCC(=O)N1CCc2cc(S(=O)(=O)NC(CC(C)C)C(=O)NCCc3cccc(C)c3)ccc21 (stereo unspecified) please. 64.6

Quote activation reported for `COc1cccc(NC(=O)CSc2cc(=O)n(C)c3ccc(Cl)cc23)c1` please. 66.2

Quote activation reported for CCC(=O)N1CCc2cc(S(=O)(=O)NC(C(=O)NCCc3ccc(C)cc3)C(C)C)ccc21 (stereo unspecified) please. -8.05

Quote activation reported for `CN1CCC[C@@H]1CCO[C@](C)(c1ccccc1)c1ccc(Cl)cc1` please. 68.2

Quote activation reported for CCOc1cc(C2c3c(-c4ccc(Br)cc4)n[nH]c3C(=O)N2c2ccc(Cl)cc2)ccc1O (stereo unspecified) please. 85.1

Quote activation reported for CCCCN(CCCC)CCC(O)c1cc2c(Cl)cc(Cl)cc2c2cc(C(F)(F)F)ccc12 (stereo unspecified) please. 98.9

Quote activation reported for CC(=O)c1ccc(N2CCN(C3C(=O)c4ccccc4N3C(C)=O)CC2)cc1 (stereo unspecified) please. -28.3

Quote activation reported for `CC(C)c1ccc(S(=O)(=O)Nc2ccc(O)c(Sc3nc4ccccc4s3)c2)cc1` please. 70.6

Quote activation reported for `CN(Cc1ccccc1)C(=O)c1cn(C)c2ccc(S(=O)(=O)N3CCCCC3)cc2c1=O` please. 13.1

Quote activation reported for CCOC(=O)c1ccc(N2C(=O)c3n[nH]c(C)c3C2c2ccc(O)c(OC)c2)cc1 (stereo unspecified) please. 21.2

Quote activation reported for O=C1N(Cc2ccccc2)c2ccc(Cl)cc2C1(O)c1c[nH]c2ccccc12 (stereo unspecified) please. 116

Quote activation reported for `CCOc1ccc(NC(=O)c2cnn(-c3ccccc3)c2-n2cccc2)cc1` please. -6.74

Quote activation reported for `Cc1nn(Cc2ccc(F)cc2)c(C)c1NC(=O)c1cc(CC(C)C)on1` please. 86.4

Quote activation reported for `O=C(Nc1ccccc1Br)c1cc(CN2CCCC2)on1` please. -9.24

Quote activation reported for Cc1ccsc1CN(C(=O)c1oc2ccc(Br)cc2c1C)C1CCS(=O)(=O)C1 (stereo unspecified) please. -26.5
